The measurements presented in this section are drawn from ChEMBL document CHEMBL1201862.

Tested on: Hs-578T
Assay: NCI tumour cell line growth inhibition, 48 h
Activity calls are given as the source filed them. Rule as the data show it: active = GI50 up to about 1.1 µM and inactive = higher.
Please answer using one outcome listed in Y for active, N for inactive

Would you please look over these solved cases?
- compound: "CCCCCCC(C)CC(CCCCCC)NCCOC(=O)c1ccc([N+](=O)[O-])cc1 (stereo unspecified)"
  answer.label: "N"
- compound: "COc1ccc2nc(-c3ccc(O)cc3)cc(O)c2c1"
  answer.label: "N"
- compound: "CCOC(=O)c1c(Br)c(-c2ccc(OC)cc2)c(Br)n1C"
  answer.label: "N"
- compound: "CC(C(=O)O)/C(=C\\c1ccc2c(c1)OCO2)C(=O)O (stereo unspecified)"
  answer.label: "N"
- compound: "COC(=O)[C@]12CC=C3O[C@@H]4OC5(CCCCC5)O[C@@H]4[C@H]3C1C(=O)C=CC2=O (stereo partly specified)"
  answer.label: "N"
- compound: "Cc1c2cc[n+](C)cc2c(C)c2c1sc1ccccc12"
  answer.label: "Y"

Problem: Please state the recorded outcome for this compound: CC(C)(C)C1CCC2c3c([nH]c4ccccc34)C3C(=O)N(c4ccccc4[N+](=O)[O-])C(=O)C3C2C1 (stereo unspecified)
Solution: N

Problem: Please state the recorded outcome for this compound: "CCOC(=O)Cn1c(C(F)(F)F)nc2nc(Cl)c(Cl)nc21"
Solution: N

Problem: Please state the recorded outcome for this compound: "COc1ccc(OC)c2c(=S)c3ccccc3[nH]c12"
Solution: N

Problem: Please state the recorded outcome for this compound: CC(C)(C)OC(=O)NC(Cc1ccc(OCc2ccccc2)cn1)C(N)=O (stereo unspecified)
Solution: N

Problem: Please state the recorded outcome for this compound: "CCOP(=O)(OCC)c1c(C(=O)OC)cc(=O)[nH]c1-c1ccc(C)cc1"
Solution: N

Problem: Please state the recorded outcome for this compound: "Cc1c(C#N)c2nnn(-c3ccccc3)c(=O)n2c1-c1ccccc1"
Solution: N

Problem: Please state the recorded outcome for this compound: COc1nc2c(c(=O)n1C)N(C(C)=O)C1C(N2)OCC(OC(C)=O)C1OC(C)=O (stereo unspecified)
Solution: N

Problem: Please state the recorded outcome for this compound: COC(=O)C(CCSC)NC(=O)CNC(=O)CSc1nnc(COc2ccc(Cl)cc2)n1-c1ccccc1 (stereo unspecified)
Solution: N

###

System: HCT-116
Assay: NCI tumour cell line growth inhibition, 48 h
Activity calls are given as the source filed them. No stated cut-off is given here; in the data, active = GI50 up to about 1.1 µM and inactive = higher.
measure.name: GI50

- compound: "OCC(O)C(O)C(C=NNc1ncnc2ccc(Br)cc12)=NNc1ncnc2ccc(Br)cc12 (stereo not given)"
  GI50: "0.404 µM (active)"
- compound: "O=S(=O)(CCC[C@H]1[C@@H](CCOCc2ccccc2)C2CCCN1O2)c1ccccc1 (stereo not given in full)"
  GI50: "> 100 µM (inactive)"
- compound: "COc1ccc(C(=O)/C=C/c2ccc(Oc3cc(C(=O)/C=C/c4ccc(O)cc4)c(O)cc3OC)cc2)c(O)c1"
  GI50: "1.87 µM (inactive)"
- compound: "CC#Cc1ccc(-c2ccccc2)s1"
  GI50: "> 100 µM (inactive)"
- compound: "COC(=O)c1ccccc1C1CN=NC12Cc1cccc(C)c1C2=O (stereo not given)"
  GI50: "37.4 µM (inactive)"

Problem: Requested read-out GI50, target or system HCT-116, entry "CCOC(=O)c1c(SCCN(CC)CC)n(-c2ccccc2)c(=S)n(-c2ccccc2)c1=O"
Solution: 3.87 µM (inactive)

Problem: Requested read-out GI50, target or system HCT-116, entry "O=C(O)Cc1nc[nH]c1C(=O)O"
Solution: > 100 µM (inactive)

Problem: Requested read-out GI50, target or system HCT-116, entry "Cc1cc(=O)oc2cc3oc(N(C)c4ccccc4)nc(=O)c3cc12"
Solution: > 100 µM (inactive)

Problem: Requested read-out GI50, target or system HCT-116, entry "CCOC(=O)c1c(Br)c(-c2ccc(OC)cc2)c(Br)n1C"
Solution: 6.56 µM (inactive)

Problem: Requested read-out GI50, target or system HCT-116, entry "CCOP(=O)(Nc1ccc(-c2ccccc2)cc1)OCC"
Solution: > 100 µM (inactive)
